- Tested on: LXRb:RXRa (NR concentration 270 nM, RXRa partner concentration 90 nM)
- assayOverview: PBM binding z-score (relative to random genomic background probes); higher = stronger binding; sequences stand for … in GC…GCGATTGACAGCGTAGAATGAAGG
Decide by PBM binding z-score: equal to or exceeding 3 means 1, less means -1.

[[record]]
sequencestring = "CGTCACAGTTCAAGGTAACGTAACAGAAAGCAGC"
categorylabel = -1

[[record]]
sequencestring = "GCGACTGGGGCATCAGCTGGTTACCATAACTTAA"
categorylabel = -1

[[record]]
sequencestring = "TCTAGTTGGTCCAAGGTCACACACTCGAAATGCG"
categorylabel = 1

[[record]]
sequencestring = "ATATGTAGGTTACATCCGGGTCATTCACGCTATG"
categorylabel = 1

[[record]]
sequencestring = "TGAATGAGGTTATAAGAGCAGGGAACGTTGCAAA"
categorylabel = -1

[[record]]
sequencestring = "CATACAGGGTCAGCTTGGCCAGAGTAGGGACGGC"
categorylabel = -1

[[record]]
sequencestring = "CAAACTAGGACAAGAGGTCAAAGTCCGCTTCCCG"
categorylabel = 1

[[record]]
sequencestring = "TCTGCTAGGTCAACGATGGTCAGATAATCTGCTA"
categorylabel = -1

[[record]]
sequencestring = "TCGAGTAGGTTACTAATGGGGCATTCAGCTTTCT"
categorylabel = -1

[[record]]
sequencestring = "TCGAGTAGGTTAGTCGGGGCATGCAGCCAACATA"
categorylabel = -1

[[record]]
sequencestring = "TCAGAGAGGTGAAGGTAACTCAGGTACGCAGTCG"
categorylabel = -1

[[record]]
sequencestring = "GATACAGGGTCAGGGCCAGAGTACGCGTATTGAT"
categorylabel = -1

[[record]]
sequencestring = "GCTCTTAGTTGAAAGGGCAACCGAATGATTCTCG"
categorylabel = -1

[[record]]
sequencestring = "ACAGACAGGTGATGAAGGTAACCCAGGCTATCAT"
categorylabel = -1

[[record]]
sequencestring = "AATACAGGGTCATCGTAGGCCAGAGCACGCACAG"
categorylabel = 1

[[record]]
sequencestring = "CGTCCAGGGTCAATGCTAGGTCAGTGAAAGCATT"
categorylabel = 1

[[record]]
sequencestring = "TCTAGTAGGTTAGGGGCATTCAGAATGGCGTCGA"
categorylabel = -1

[[record]]
sequencestring = "CCGACTGGGGCATAAGGTTACCAGAAGCCAGCCC"
categorylabel = -1

[[record]]
sequencestring = "AGAACGAGGTTATACGTAGATCAGGGAAGAAAGT"
categorylabel = -1

[[record]]
sequencestring = "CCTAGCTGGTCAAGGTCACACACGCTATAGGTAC"
categorylabel = 1

[[record]]
sequencestring = "AGAGACAGGTGATGAAGGTAACTCAGGCTATCAT"
categorylabel = -1

[[record]]
sequencestring = "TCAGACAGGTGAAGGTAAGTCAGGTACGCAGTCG"
categorylabel = -1

[[record]]
sequencestring = "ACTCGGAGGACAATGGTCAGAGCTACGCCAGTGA"
categorylabel = -1

[[record]]
sequencestring = "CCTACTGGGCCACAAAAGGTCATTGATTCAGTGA"
categorylabel = 1

[[record]]
sequencestring = "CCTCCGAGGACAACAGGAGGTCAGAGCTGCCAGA"
categorylabel = -1

[[record]]
sequencestring = "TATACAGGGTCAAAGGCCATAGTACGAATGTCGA"
categorylabel = 1

[[record]]
sequencestring = "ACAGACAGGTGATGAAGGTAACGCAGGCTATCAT"
categorylabel = -1

[[record]]
sequencestring = "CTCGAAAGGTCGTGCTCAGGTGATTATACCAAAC"
categorylabel = 1

[[record]]
sequencestring = "ACAGACAGGTGAGTGATGGTAACTCAGCTGGACG"
categorylabel = -1

[[record]]
sequencestring = "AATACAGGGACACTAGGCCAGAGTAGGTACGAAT"
categorylabel = -1

[[record]]
sequencestring = "CTACCAGGGTGAACAAGGTCGTTGATTACTATTC"
categorylabel = -1

[[record]]
sequencestring = "GCTGCTAGGTCAGGTTGGTCAGCCAACGGGTACG"
categorylabel = -1

[[record]]
sequencestring = "CGAACTAGGTCATTGAGAGGACAGTGAATAGTAA"
categorylabel = -1

[[record]]
sequencestring = "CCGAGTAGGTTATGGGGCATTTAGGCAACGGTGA"
categorylabel = -1

[[record]]
sequencestring = "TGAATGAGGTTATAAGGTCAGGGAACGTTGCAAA"
categorylabel = 1

[[record]]
sequencestring = "ATATGTAGGTTAAGGTTCATTCAGGTTGGTTCGC"
categorylabel = 1

[[record]]
sequencestring = "ACATACAGGTGAGTGAAGGTAACTCAGCTGGACG"
categorylabel = -1

[[record]]
sequencestring = "GAGACAGGGTCAGCTAGAGGCCAGAGTATGGAAA"
categorylabel = -1

[[record]]
sequencestring = "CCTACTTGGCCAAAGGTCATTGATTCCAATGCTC"
categorylabel = 1

[[record]]
sequencestring = "TCGAGTAAGTTAGGGGCATTCAGAATGGCGTCGA"
categorylabel = -1

